Kindly state Emax for each of the entries shown.
# Measurement Target: LXRβ (Homo sapiens)
# Construct: Co-transfection expression plasmids, comprising full-length LXRα (pCMX-h LXRα[…] or LXRβ (pCMX-hLXRβ)); expressed in transfected cells; host or cells: CV-1 African Green Monkey Kidney Cells
# Sequence (P55055 1-460): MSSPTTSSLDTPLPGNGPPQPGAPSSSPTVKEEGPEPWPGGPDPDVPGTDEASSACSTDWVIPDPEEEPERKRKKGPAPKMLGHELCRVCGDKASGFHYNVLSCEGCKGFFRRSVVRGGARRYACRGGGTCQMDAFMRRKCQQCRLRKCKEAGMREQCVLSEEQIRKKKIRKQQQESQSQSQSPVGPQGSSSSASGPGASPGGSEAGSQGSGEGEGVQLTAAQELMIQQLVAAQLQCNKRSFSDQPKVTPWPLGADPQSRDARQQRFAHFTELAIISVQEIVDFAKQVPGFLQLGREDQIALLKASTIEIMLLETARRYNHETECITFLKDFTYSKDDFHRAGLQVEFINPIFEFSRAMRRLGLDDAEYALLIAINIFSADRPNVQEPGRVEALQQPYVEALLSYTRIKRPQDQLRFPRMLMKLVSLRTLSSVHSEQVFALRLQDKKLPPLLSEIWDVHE
# Sequence (P19793 1-462 partner): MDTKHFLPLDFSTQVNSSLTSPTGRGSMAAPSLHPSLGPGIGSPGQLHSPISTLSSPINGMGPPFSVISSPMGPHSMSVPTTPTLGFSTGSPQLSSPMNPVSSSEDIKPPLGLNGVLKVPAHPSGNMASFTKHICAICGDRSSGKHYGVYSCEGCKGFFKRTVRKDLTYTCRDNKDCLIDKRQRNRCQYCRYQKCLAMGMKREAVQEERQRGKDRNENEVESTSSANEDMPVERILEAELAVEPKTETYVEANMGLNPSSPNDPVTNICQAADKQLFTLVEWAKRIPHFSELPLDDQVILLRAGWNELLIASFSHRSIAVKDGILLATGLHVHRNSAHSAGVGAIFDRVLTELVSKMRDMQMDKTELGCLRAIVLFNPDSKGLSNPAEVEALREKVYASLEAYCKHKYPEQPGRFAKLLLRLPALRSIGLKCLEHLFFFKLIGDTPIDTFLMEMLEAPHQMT
# Assay Method Text: Co-transfection assay (LXRE luciferase reporter), LXRβ
# Assay type: cell-based
# Condition Info: LXRβ co-transfection; relative to high control 1-(2,4-difluorobenzyl)-2-oxo-6-(4-phenoxyphenyl)-4-(trifluoromethyl)-1,2-dihydropyridine-3-carbonitrile; read-out: % Efficacy
Only the number, expressed in %, is required.

Could you share what Emax was measured for Cc1nc(-c2cc(-c3cc(F)c(CO)c(S(C)(=O)=O)c3)ccc2-n2cc(C(F)(F)F)nc2C)c(-c2ccc3c(c2)CCC3)o1 [Example 475] , tested on LXRβ (Homo sapiens)?
56

Now give it for Cc1nc(C(F)(F)F)cn1-c1ccc(-c2cc(F)c(CO)c(S(C)(=O)=O)c2)cc1-c1oc(CCO)nc1-c1ccc2c(c1)OC(F)(F)O2 [Example 621] too.
81

For Cc1ccc(-c2cnnn2-c2cc(-c3cccc(S(C)(=O)=O)c3)ccc2-n2cc(C(F)(F)F)nc2C)cc1 [Example 50] then?
88

What would you report for Cc1nc(C(C)(F)F)cn1-c1ccc(-c2cccc(S(C)(=O)=O)c2)cc1-n1nncc1-c1ccc(Cl)cc1 [Example 176] ?
68

Cc1nc(C(F)(F)F)cn1-c1ccc(-c2cccc(S(C)(=O)=O)c2)cc1-n1nncc1CC1CCC(C)CC1 (stereo not shown) [Example 127] , same question.
55

Follow-up entry: Cc1nc(-c2cc(-c3cccc(S(C)(=O)=O)c3)ccc2-n2cc(C(F)(F)F)nc2C)c(-c2ccc(F)cc2)o1 [Example 505]
87

Now this one: Cc1nc(-c2cc(-c3cccc(S(C)(=O)=O)c3)ccc2-n2cc(C(F)(F)F)nc2C)c(-c2ccc(C)c(F)c2)o1 [Example 504]
77

Reference for the values: patent US9834542B2
